Assay: NCI Yeast Anticancer Drug Screen. Data for the mec2-1 strain (AID 157)
Settings: S. cerevisiae mec2-1 strain, hits give high values; at 50.0 µM unless noted
Procedure: Growth inhibition of yeast strains with defined genetic alterations is measured as a screen for potential anti-cancer activity. Selected strains with alterations in DNA damage repair or cell cycle control were exposed to compounds and growth inhibition was measured relative to vehicle treated controls. The strain used in this assay is mec2-1
The panel holds about 79,000 compounds, 15% with a hit somewhere; the sample as a whole holds those more often.
QUANTITY: growth inhibition (%)

>>> print(df.to_string())
                                   compound  readout_units  value_observed
0  CCCCOC(=O)NC(Nc1ccc(S(N)(=O)=O)cc1)(C(F)(F)F)C(F)(F)F              %             7.9
1  C=C1CCCC(C)(C)[C@@H]1CC/C(C)=C/Cn1c2cccc(=O)c-2nc2ccccc21              %            6.75
2                           NCc1cc(Br)ccc1O              %             3.3
3  O=C(OC1c2cccc3cccc(c23)C1O)c1ccccc1 (configuration not stated)              %           -2.45
4  CC1=CCCC2C(C=O)(C1)CC(C)C2(CO)CC/C(=C/CO)CO (configuration not stated)              %            4.05
5                     CC1(C)CC(O)CC(C)(C)N1              %            -8.7
6               O=c1c2cncnc2sc2nc3ccccc3n12              %           -9.55

---

Quick list: growth inhibition per entry.
assay: NCI Yeast Anticancer Drug Screen. Data for the bub3 strain (AID 167); details: S. cerevisiae bub3 mutant strain, hits give high values; at 50.0 µM unless noted
About 79,000 compounds went through this panel and 15% of them were active in at least one assay; those are over-represented in the sample as a whole.
QUANTITY: growth inhibition (%)

                                    compound           quantity  value_observed
 0  O=C(OC1CCCCCCC1OC(=O)c1ccc([N+](=O)[O-])cc1)c1ccc([N+](=O)[O-])cc1 (configuration not stated)  growth inhibition            -4.8
 1  C=C1CC[C@@H](C)[C@](C)(CCc2ccoc2)C/C=C\C=C/1C(=O)O  growth inhibition            25.6
 2  CN(C)C(Cc1cnc[nH]1)C(=O)N1CCCC1C(N)=O (configuration not stated)  growth inhibition           -20.8
 3                   CC(C)N(C(C)C)S(C)(=O)=O  growth inhibition            10.3
 4  COC(C(=O)Nc1ccc(C)cc1)(c1ccccc1)c1ccccc1  growth inhibition            12.9
 5  Clc1ccc(C(=Nc2ccccc2)C(Nc2ccccc2)c2ccc(Cl)cc2)cc1 (configuration not stated)  growth inhibition             3.8
 6        O=C(NC(=O)c1ccccc1)Oc1cccc2ccccc12  growth inhibition            10.7
 7  NC(COC(=O)NCCCl)C(=O)O (configuration not stated)  growth inhibition            22.1
 8  O=C1OC2(CCCCC2)OC1c1ccccc1 (configuration not stated)  growth inhibition            16.2
 9  NC(N)=N/N=C(\c1ccc(C(F)(F)F)cc1)c1ccc(Cl)c(Cl)c1  growth inhibition            99.3
10  N#CC(NNC(=O)Cc1ccccc1)c1ccc(O)cc1 (configuration not stated)  growth inhibition           -25.6
11            CN(C)Cc1cc(-c2c(Cl)cccc2Cl)no1  growth inhibition             7.1

---

Reported growth inhibition values for the following molecules.
test: NCI Yeast Anticancer Drug Screen. Data for the mlh1 rad18 strain (AID 175); settings: S. cerevisiae mlh1 rad18 strain growth inhibition, hits give high values; at 50.0 µM unless noted
This is part of a sample that, as a whole, favours compounds with a hit. Of some 79,000 tested, about 15% had one in any assay.
QUANTITY: growth inhibition (%)

>>> print(df.to_string())
                                    molecule  readout_units  value_observed
 0  CC(C)=CC1C(C(=O)Oc2ccccc2C(C)C)C1(C)C (stereo not given)              %             4.6
 1  CC12CC(O)C3C(CCC4CC(O)CCC43C)C1CCC2C(=O)CO (stereo not given)              %            10.4
 2  Nc1ccccc1SC1CC(=O)N(c2ccc3c(c2)OCO3)C1=O (stereo not given)              %            16.3
 3  C=C1C(=O)OC2/C=C(\C)C(O)CCC(C)(O)CC(OC(=O)/C(C)=C/C)C12 (stereo not given)              %            -1.9
 4  [N-]=[N+]=CC(=O)C1OC12C1CC3CC(C1)CC2C3 (stereo not given)              %            4.55
 5  CC(=O)O/N=C(\C(c1ccccc1)c1ccccc1)C1c2ccccc2-c2ccccc21              %            96.2
 6         NNC(=O)c1nnn(CCc2ccccc2)c1C(=O)NN              %            -3.9
 7  Nc1ccccc1SC(CC(=O)c1ccc(-c2ccccc2)cc1)c1ccco1 (stereo not given)              %           -31.7
 8    Oc1ccccc1/C=N\N=C\NN/C=N/N=C/c1ccccc1O              %            5.55
 9                               Oc1cccnc1Cl              %             2.5
10        [O-][N+](CCO)(CCO)c1ncnc2nc[nH]c12              %            18.4
11          NS(=O)(=O)c1ccc(N=Nc2ncccc2O)cc1              %            20.6
12  COC(=O)NCC1OCC2OC(C)(C)OC12 (stereo not given)              %            9.35
13  C[C@H](C(=O)O)C(=O)NC(=O)N(Cc1ccccc1)N=O              %            -8.3
14  CN1C(=O)OC2OC(C)(c3ccc(S(=O)(=O)c4ccccc4)cc3)C(=O)CC21 (stereo not given)              %            2.25
15  CC(O)CNc1nc(N)[nH]c(=O)c1[N+](=O)[O-] (stereo not given)              %            -1.6
16   C/C(=N\N/C=N/S(=O)(=O)c1ccccc1)c1ccccc1              %           -1.55
17    CC1(C)Oc2ccccc2OC1O (stereo not given)              %               3
18              Nc1nc(NCCO)c(NC=O)c(=O)[nH]1              %           -1.35
19           O=C1COC(c2ccccc2O)=NN1Cc1ccccc1              %            -1.1
20          C(=Nc1ccc(N=Cc2ccco2)cc1)c1ccco1              %            7.35
21                            NCCSS(=O)(=O)O              %           -24.9
22                     N#CCSc1ncnc2nc[nH]c12              %            0.15
23  CC1C(=O)C(c2cccs2)(C2CCCCC2)CC[N+]1(C)C (stereo not given)              %            17.4
24  CCC(C)C(NC(=O)C1CSC(C)(C)N1C=O)C(=O)OC1CCCCC1 (stereo not given)              %            9.55

---

experiment: NCI Yeast Anticancer Drug Screen. Data for the sgs1 mgt1 strain (AID 161);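 also: 0% = growth of cultures given vehicle only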; details: S. cerevisiae sgs1 mgt1 strain, at 5.0 µM (retest, dose inferred, filed as 0.5), hits give high values
Compounds without any hit were thinned out: in the full panel of roughly 79,000, 15% have a hit.
Below, each entry is listed with its recorded growth inhibition.
QUANTITY: growth inhibition (%)

>>> print(df.to_string())
                        given_smiles  value_observed
0                 CCCCCCCCCCNC(=O)CI              24
1      O=C(Cc1ccccc1)c1ccc(O)c(Cl)c1              18
2           CCCCNc1ccc(Nc2ccccc2)cc1              14
3            CC(C)C(C)(C)c1ccc(O)cc1               3
4          Oc1ccc(Cc2ccccc2Cl)c(O)c1              -3
5                       CC(CC=O)CC=O              18
6        COc1ccc(Nc2ccc3ccccc3c2)cc1             -66
7    O=C(O)/C=C\C(=O)Nc1cccc2ccccc12               7
8  CN(C)c1ccc(/C=C\C(=O)c2ccccc2)cc1               6
